Biological target: ZFP SBS#365 (synthetic)
Sequence (chain, as listed by the source): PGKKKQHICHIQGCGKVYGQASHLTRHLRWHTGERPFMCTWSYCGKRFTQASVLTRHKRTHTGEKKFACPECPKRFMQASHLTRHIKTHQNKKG
Assay: EMSA
Settings: tags: MBP fusion
pKd: −log10 of the molar value.
measured property: pKd

binder | measured property | reported
GGTGCTGGT (dsDNA) DNA 1: GGTGCTGGT DNA 2: ACCAGCACC | pKd | 6.22
